- study-system: T1, recombinant human LAG-3-his protein (Novoprotein) (human, UniProt P18627 23-450)
- T1 construct: Bought; also called huLAG-3; not shown: His tag
- T1 sequence (looked up): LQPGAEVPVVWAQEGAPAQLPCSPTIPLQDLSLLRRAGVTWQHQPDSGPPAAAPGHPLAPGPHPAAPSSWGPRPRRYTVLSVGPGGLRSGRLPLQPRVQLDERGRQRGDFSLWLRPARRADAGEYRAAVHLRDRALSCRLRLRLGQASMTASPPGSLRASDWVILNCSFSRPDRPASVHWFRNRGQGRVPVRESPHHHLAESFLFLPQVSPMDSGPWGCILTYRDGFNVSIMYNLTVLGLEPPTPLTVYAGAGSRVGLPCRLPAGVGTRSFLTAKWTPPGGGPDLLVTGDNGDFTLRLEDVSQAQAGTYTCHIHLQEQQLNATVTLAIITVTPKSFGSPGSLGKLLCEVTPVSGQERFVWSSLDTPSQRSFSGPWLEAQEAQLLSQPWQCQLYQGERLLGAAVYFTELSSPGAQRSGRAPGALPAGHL
- assay-overview: BLI Octet, Ab on AHC sensor, huLAG-3-his; test group 1
Parameter: off-rate ratio to that of mAb747c. Scope: all listed entries.

binder | off-rate ratio to that of mAb747c
HumAb747-45 (antibody, human IgG1, V domains shown, humanized mAb747; human IgG1/kappa constant domains) VH: EVQLVQSGAEVKKPGATVKLSCTASDFNIKDDYMHWVQQAPGKGLEWIGWIVPENGNTEYASKFQGRVTITADTSTDTAYLELSSLRSEDTAVYYCTVYGDYWGQGTTVTVSS VL: DIQMTQSPSSLSASVGDRVTITCRASQEISGYLSWLQQKPGKAIKSLIYAASTLDSGVPSRFSGSRSGTDFTLTISSLQPEDFATYYCLQYASYPLTFGQGTKLEIK | 797%
HumAb747-47 (antibody, human IgG1, V domains shown, humanized mAb747; human IgG1/kappa constant domains) VH: EVQLVQSGAEVKKPGATVKISCKVSDFNIKDDYMHWVQQAPGKGLEWIGWIVPENGNTEYASKFQGRVTITADTSTDTAYLELSSLRSEDTAVYYCTVYGDYWGQGTTVTVSS VL: DIQMTQSPSSLSASVGDRVTITCRASQEISGYLSWLQQKPGKAIKRLIYAASTLDSGVPSRFSGSRSGTDFTLTISSLQPEDFATYYCLQYASYPLTFGQGTKLEIK | 1060%
HumAb747-46 (antibody, human IgG1, V domains shown, humanized mAb747; human IgG1/kappa constant domains) VH: EVQLVQSGAEVKKPGATVKLSCTASDFNIKDDYMHWVKQAPGKGLEWIGWIVPENGNTEYASKFQGRATITADTSTNTAYLELSSLRSEDTAVYYCTVYGDYWGQGTTVTVSS VL: DIQMTQSPSSLSASVGDRVTITCRASQEISGYLSWLQQKPGKAIKSLIYAASTLDSGVPSRFSGSRSGTDFTLTISSLQPEDFATYYCLQYASYPLTFGQGTKLEIK | 801%
